Tested on: HEK-293T
EXPERIMENT_DESCRIPTION: Multiplex assay against HEK293T
Assay type: toxicity, cell-based
MEASUREMENT_CONDITIONS: human, 12 h, 1 µM, compound concentration 1 uM, replicate 2
MEASUREMENT_LABEL: Population Healthy Nuclei (%)

Some compounds with recorded Population Healthy Nuclei (%):
Looking up CCNc1cc(N[C@H]2CC[C@H](O)CC2)nc(Nc2ccc3c(ccn3Cc3ccccc3)c2)n1 , I see its Population Healthy Nuclei (%) listed as 85%

// sample CCCS(=O)(=O)Nc1ccc(F)c(C(=O)c2c[nH]c3ncc(Cl)cc23)c1F , its Population Healthy Nuclei (%) was 87%

// Population Healthy Nuclei (%) lookup, compound = COc1cc2ncnc(Nc3ccc(F)c(Cl)c3)c2cc1NC(=O)/C=C/CN1CCCCC1 [DACOMITINIB ANHYDROUS] , result: 83%

Memo: Cl.Oc1ccc2c3c1O[C@H]1c4[nH]c5c(c4C[C@@]4(O)[C@@H](C2)N(CC2CC2)CC[C@]314)C[C@@]1(O)[C@H]2Cc3ccc(O)c4c3[C@@]1(CCN2CC1CC1)[C@H]5O4 , reported Population Healthy Nuclei (%): 38%

// field: Population Healthy Nuclei (%); key: COc1ccc(S(=O)(=O)N(CCO)c2ccccc2CN(C)C/C=C/c2ccc(Cl)cc2)cc1.O=P(O)(O)O ; value = 67%

Others:
Consider CN([C@@H](Cc1ccc(OS(=O)(=O)c2cccc3cnccc23)cc1)C(=O)N1CCN(c2ccccc2)CC1)S(=O)(=O)c1cccc2cnccc12 . Its measured Population Healthy Nuclei (%) is 73%

Briefly, Population Healthy Nuclei (%) measured for COc1ccc(-c2ccc3c(N4CCOCC4)nc(N4C[C@@H](C)O[C@@H](C)C4)nc3n2)cc1CO : 82%

response.value for CCn1cc(-c2ccnc3[nH]c(-c4cccc(CN(C)C)c4)cc23)c(-c2ccc(NC(=O)N(C)C)cc2)n1 (field: Population Healthy Nuclei (%)) = 84%

// Population Healthy Nuclei (%) lookup, compound = CCOC(=O)c1c(C)[nH]c2ccc3c(c12)CN1CCc2cc(OC)ccc2C1O3 (stereo not given) , result: 28%

====

Tested on: U2OS
EXPERIMENT_DESCRIPTION: Incucyte cell viability with U2OS; further: filed as whole numbers so only -1 and 0 and 1 occur
Format: toxicity, cell-based
MEASUREMENT_CONDITIONS: human, 12 h, 10 µM, compound concentration 10 uM, replicate number 1, timepoint 12 hours
The compounds listed here are annotated with their Growth Rate.
The reply should be a number, written without any unit.

Value (Growth Rate, U2OS) for record CS(=O)(=O)NCC[C@H](NC(=O)c1cncc2c1cnn2-c1ccc(F)cc1)c1ccnc(S(C)(=O)=O)c1 = 1

====

Test system: U2OS
EXPERIMENT_DESCRIPTION: Multiplex assay against U2OS
Format: toxicity, cell-based
MEASUREMENT_CONDITIONS: human, 12 h, 10 µM, compound concentration 10 uM, replicate 2
MEASUREMENT_LABEL: Population Pyknosed Nuclei (%)
Don't forget the unit after the number, please.

Just so you know, measured Population Pyknosed Nuclei (%) for COc1ccc(S(=O)(=O)N(CCO)c2ccccc2CN(C)C/C=C/c2ccc(Cl)cc2)cc1.O=P(O)(O)O came out at 0%

Value of measured Population Pyknosed Nuclei (%) for the entry COC(=N)c1nc2ccc3ncnc(Nc4ccc(OC)cc4F)c3c2s1 : 8%

Population Pyknosed Nuclei (%) measured on C=C1/C(=C\C=C2/CCC[C@]3(C)[C@@H]([C@H](C)/C=C/[C@H](C)C(C)C)CC[C@@H]23)C[C@@H](O)C[C@@H]1O = 5%

Population Pyknosed Nuclei (%) in this record for CNc1cc(Oc2cc(C(=O)Nc3cc(N4CCN(C)CC4)cc(C(F)(F)F)c3)ccc2C)ncn1 : 61%

So, NC(=O)c1cccc(-c2cc(Nc3ccc(OC(F)(F)F)cc3)ncn2)c1 ? Its Population Pyknosed Nuclei (%) was 8%

New cases:
get_value(item= CCc1cccc(CC)c1NC(=O)c1nn(C)c2c1CCc1cnc(Nc3ccc(N4CCN(C)CC4)cc3OC)nc1-2 , readout=Population Pyknosed Nuclei (%)) returns 8%

Population Pyknosed Nuclei (%) reading for CCCS(=O)(=O)c1nc(NC2CC2)cc(-c2ccc3c(ccn3C3CC(C)(C)NC(C)(C)C3)c2)n1 : 19%

====

Test system: Fibroblast
EXPERIMENT_DESCRIPTION: Multiplex assay against human fibroblast
Type: toxicity, cell-based
MEASUREMENT_CONDITIONS: 24 h, 1 µM, compound concentration 1 uM, replicate 2
MEASUREMENT_LABEL: Population Hoechst High Intensity Objects (%)
Give the value, in units of %, as a plain number.

The examples below pair each entry with its known result.
Briefly, Population Hoechst High Intensity Objects (%) measured for CNC(=O)c1ccc(Nc2nc(OC3CCCC3)c3c(-c4ccc5nc(C)oc5c4)c[nH]c3n2)c(OC)c1 : 35

Quick note, Population Hoechst High Intensity Objects (%) for COc1ccc(S(=O)(=O)N(CCO)c2ccccc2CN(C)C/C=C/c2ccc(Cl)cc2)cc1.O=P(O)(O)O landed at 37

Sample CCN1CCN(Cc2ccc(Nc3ncc(F)c(-c4cc(F)c5nc(C)n(C(C)C)c5c4)n3)nc2)CC1.CS(=O)(=O)O ; Population Hoechst High Intensity Objects (%) observed: 10

Lab book: Population Hoechst High Intensity Objects (%) of O=C1N/C(=N/c2ccccc2F)S/C1=C\c1ccc(C(=O)O)cc1 noted as 5

***
In plain terms, O=C(Nc1cccnn1)N1CCC(=Cc2cccc(Oc3ccc(C(F)(F)F)cn3)c2)CC1 has a documented Population Hoechst High Intensity Objects (%) of 42

====

Test system: HEK-293T
EXPERIMENT_DESCRIPTION: Multiplex assay against HEK293T
Format: toxicity, cell-based
MEASUREMENT_CONDITIONS: human, 12 h, 1 µM, compound concentration 1 uM, replicate 2
MEASUREMENT_LABEL: Population Hoechst High Intensity Objects (%)
Provide the reading as a plain figure in %.

Population Hoechst High Intensity Objects (%) in this record for CCOc1cc(C(=O)N2CCC(N3CCN(C)CC3)CC2)ccc1Nc1ncc2c(n1)N(C1CCCC1)c1ccccc1C(=O)N2C : 5

# Population Hoechst High Intensity Objects (%) (compound: CN1CCN(C(=O)C(C)(C)c2ccc(C(=O)Nc3cn4cc(-c5cc(C(C)(C)C)cc(C(C)(C)C)c5)ccc4n3)cc2)CC1 [T3-CLK-N] ) is 2

For reference, reported Population Hoechst High Intensity Objects (%) for CCCS(=O)(=O)c1nc(NC2CC2)cc(-c2ccc3c(ccn3C3CC(C)(C)NC(C)(C)C3)c2)n1 stands at 7

Next:
Lab note: CN1CCC(=C2c3ccccc3CC(=O)c3sccc32)CC1.O=C(O)/C=C/C(=O)O [KETOTIFEN FUMARATE] gave Population Hoechst High Intensity Objects (%) of 4

====

System: Fibroblast
EXPERIMENT_DESCRIPTION: Multiplex assay against human fibroblast
Type: toxicity, cell-based
MEASUREMENT_CONDITIONS: 12 h, 10 µM, compound concentration 10 uM, replicate 2
# binarize Population Membrane Permeable-Phenotype (%): threshold 30% inclusive, high side 1.0, low side 0.0

Some entries whose results are on file:
Can COc1cccc2cc(-c3nc([C@H]4CC[C@H](C(=O)O)CC4)n4ncnc(N)c34)[nH]c12 be said to have Population Membrane Permeable-Phenotype (%) at or above 30%?
0.0

Determine whether measured Population Membrane Permeable-Phenotype (%) meets or exceeds 30% for O=C1NC(=O)C(c2cnc3ccccn23)=C1c1cn2c3c(cc(F)cc13)CN(C(=O)N1CCCCC1)CC2
1.0

Is the recorded value of Population Membrane Permeable-Phenotype (%) equal to or greater than 30% for this compound? CCCS(=O)(=O)Nc1ccc(F)c(C(=O)c2c[nH]c3ncc(Cl)cc23)c1F
0.0

Form field: Population Membrane Permeable-Phenotype (%) at least 30%? Entry: CN(C)C(=O)C(CCN1CCC(O)(c2ccc(Cl)cc2)CC1)(c1ccccc1)c1ccccc1.Cl [LOPERAMIDE HYDROCHLORIDE]
1.0

Assess whether reported Population Membrane Permeable-Phenotype (%) for Cc1ccc(C(=O)Nc2cccc(C(F)(F)F)c2)cc1Nc1nc(-c2cccnc2)nc2c1cnn2C sits at 30% or higher.
1.0

Does Cn1nc(C(F)(F)F)cc1-c1cnc(N2CCc3cc(S(=O)(=O)Nc4c(F)cc(Cl)cc4F)cc(N4CCCC4=O)c32)nc1 have a reported Population Membrane Permeable-Phenotype (%) of at least 30%?
0.0

Others:
Identify whether the reported Population Membrane Permeable-Phenotype (%) of the following compound is 30% or greater: COc1cc(N2CCN(C)CC2)ccc1Nc1ncc2c(n1)N(C)c1ccccc1C(=O)N2C
0.0

====

Test system: Fibroblast
EXPERIMENT_DESCRIPTION: Multiplex assay against human fibroblast
Format: toxicity, cell-based
MEASUREMENT_CONDITIONS: 24 h, 10 µM, compound concentration 10 uM, replicate 2
Just a reminder that ties go to not met: only Population Hoechst High Intensity Objects (%) strictly below 8% counts as met.

Take the compound CCN1CCN(Cc2ccc(Nc3ncc(F)c(-c4cc(F)c5nc(C)n(C(C)C)c5c4)n3)nc2)CC1.CS(=O)(=O)O and say whether its Population Hoechst High Intensity Objects (%) is less than 8%.
not met

Next:
Is it true that Population Hoechst High Intensity Objects (%) reported for Cl.O=c1c2cccn2c2ccccc2n1CCCN1CCC(c2ccc(Cl)cc2)CC1 is less than 8%?
met

Please let me know if S=C(NCCCc1c[nH]cn1)NCCCN(Cc1ccc(Cl)c(Cl)c1)c1ccc(Br)cn1 shows Population Hoechst High Intensity Objects (%) below 8%.
not met

Hi there! Is Population Hoechst High Intensity Objects (%) for CN1C2CCC1CC(OC(c1ccc(F)cc1)c1ccc(F)cc1)C2.Cl (stereo not given) below 8%, do you know?
met
